Just for reference, the supplement of paper PMC9112550 is where these values come from.

system: Escherichia coli TOP10; experiment: shrunken log2 fold change of peptide-encoding DNA abundance (4.5 h post-induction vs induction); higher = less antimicrobial activity (less host growth inhibition); conditions: time post-induction: 4.5 h; library: site-saturation at positions 5, 18, 19, 20
Give label 1 when the value for shrunken log2 fold change is at least -0.1. Give label 0 when it is less.

biosequence: RRIRPRPPRLPRPRPRPSEDPRP
assigned class: label 1
--
biosequence: RRIRKRPPRLPRPRPRPMNLPRP
assigned class: label 0

In: // inclusive: shrunken log2 fold change at least -0.1? input: RRIRLRPPRLPRPRPRPIPPPRP
Out: label 1

In: Repeat with RRIRYRPPRLPRPRPRPAQVPRP
Out: label 1

In: Repeat with RRIRGRPPRLPRPRPRPIIPPRP
Out: label 0

In: Repeat with RRIRPRPPRLPRPRPRPPMEPRP
Out: label 1

In: Repeat with RRIRVRPPRLPRPRPRPRQEPRP
Out: label 1

In: Repeat with RRIRQRPPRLPRPRPRPLNWPRP
Out: label 0

In: Repeat with RRIRDRPPRLPRPRPRPICCPRP
Out: label 1

In: Repeat with RRIRVRPPRLPRPRPRPNWHPRP
Out: label 1

In: Repeat with RRIRMRPPRLPRPRPRPCTTPRP
Out: label 1

In: Repeat with RRIRSRPPRLPRPRPRPVMFPRP
Out: label 0

In: Repeat with RRIRYRPPRLPRPRPRPIRNPRP
Out: label 0

In: Repeat with RRIRHRPPRLPRPRPRPQVWPRP
Out: label 0

In: Repeat with RRIRIRPPRLPRPRPRPHHNPRP
Out: label 1

In: Repeat with RRIRTRPPRLPRPRPRPSTWPRP
Out: label 0

In: Repeat with RRIRQRPPRLPRPRPRPANTPRP
Out: label 0

---

tested on: Escherichia coli TOP10; test: shrunken log2 fold change of peptide-encoding DNA abundance (4.5 h post-induction vs induction); higher = less antimicrobial activity (less host growth inhibition); conditions: time post-induction: 4.5 h; library: site-saturation at positions 5, 18, 19, 20
shrunken log2 fold change reference
Note: the reply should be a number with no unit written.

Look over these answered cases.
biosequence: RRIRNRPPRLPRPRPRPNNFPRP
tested target: Escherichia coli TOP10
assay result: -0.447
--
biosequence: RRIRIRPPRLPRPRPRPYWTPRP
tested target: Escherichia coli TOP10
assay result: -0.18
--
biosequence: RRIRERPPRLPRPRPRPVNEPRP
tested target: Escherichia coli TOP10
assay result: -0.224
--
biosequence: RRIRERPPRLPRPRPRPHHMPRP
tested target: Escherichia coli TOP10
assay result: -0.381
--
biosequence: RRIRQRPPRLPRPRPRPIKLPRP
tested target: Escherichia coli TOP10
assay result: -0.0569
--
biosequence: RRIRCRPPRLPRPRPRPPHCPRP
tested target: Escherichia coli TOP10
assay result: 0.971
--
biosequence: RRIRERPPRLPRPRPRPIPGPRP
tested target: Escherichia coli TOP10
assay result: -0.124
--
biosequence: RRIRMRPPRLPRPRPRPPYQPRP
tested target: Escherichia coli TOP10
assay result: 0.0406

In: Request - read-out shrunken log2 fold change | tested on Escherichia coli TOP10 | sequence RRIRTRPPRLPRPRPRPDDFPRP;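 note: peptides expressed intracellularly from a pBAD plasmid library in pooled LB shake-flask culture, induced with 0.3% L-arabinose, DNA abundance read by NGS, three biological replicates, DESeq2 with apeglm shrinkage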
Out: 0.0516
